Answer each item with its documented Pre-emergence activity (GR80) on CONAR.
Test system: CONAR
Assay: Pre-emergence herbicidal activity on CONAR (field bindweed)
Assay type: in vivo, Convolvulus arvensis
Conditions: lowest tested rate giving 80% or greater inhibition, approx. 14 days after planting and treating, greenhouse
Source text: All such uses, and the biological activity enabling such uses, are embraced by the term “herbicidal” herein. Tables 15 and 16 summarize results of tests conducted as described below to determine the pre-emergence herbicidal activity, in the form of a GR80 value, of illustrative compounds of this invention. […] Approximately 14 days after planting and treating, the plants were observed and herbicidal efficacy recorded as percent inhibition by comparison with untreated plants. […]
The reply should be a number in g/ha, with the unit left off.

*Q* # lookup: Pre-emergence activity (GR80) on CONAR of Cc1ccc(Cl)cc1C(=O)NC(C)CNC(=O)c1cccc(C(F)(F)F)c1 (centres unmarked) [Example 47]
*A* 750

*Q* And the next one, Cc1c(Cl)cccc1C(=O)NC(C)CNC(=O)c1cccc(C(F)(F)F)c1F (centres unmarked) [Example 150] ?
*A* 125

*Q* And the next one, Cc1cccc(C(=O)NC(C)CNC(=O)c2cccc(C(F)(F)F)c2)c1C (centres unmarked) [Example 67] ?
*A* 1000

*Q* And the next one, Cc1cccc(C(=O)NC(C)CNC(=O)c2cccc(C(F)(F)F)c2)c1Br (centres unmarked) [Example 66] ?
*A* 250

*Q* And the next one, C[C@H](CNC(=O)c1cccc(C(F)(F)F)c1)NC(=O)c1cccc(C(F)(F)F)c1F [Example 13] ?
*A* 750

*Q* And the next one, CC(CNC(=O)c1cccc(C(F)(F)F)c1)NC(=O)c1cccc(C(F)(F)F)c1Cl (centres unmarked) [Example 14] ?
*A* 125

*Q* And the next one, Cc1c(F)cccc1C(=O)NC(C)CNC(=O)c1cccc(C(F)(F)F)c1 (centres unmarked) [Example 38] ?
*A* 250

*Q* And the next one, Cc1c(Br)cccc1C(=O)NC(C)CNC(=O)c1cccc(C(F)(F)F)c1 (centres unmarked) [Example 57] ?
*A* 250

*Q* And the next one, CC(CNC(=O)c1cccc(C(F)(F)F)c1)NC(=O)c1cccc(F)c1F (centres unmarked) [Example 34] ?
*A* 750

Origin of the recorded values: patent US20020052295A1
